System: Escherichia coli TOP10
experiment: shrunken log2 fold change of peptide-encoding DNA abundance (4.5 h post-induction vs induction); higher = less antimicrobial activity (less host growth inhibition)
details: time post-induction: 4.5 h; library: site-saturation at positions 5, 18, 19, 20
Give shrunken log2 fold change for every item shown.
Answers are plain numbers.

Some sequences with known shrunken log2 fold change results, for comparison:
Kindly note the recorded shrunken log2 fold change for RRIRLRPPRLPRPRPRPLISPRP , which is -0.506

Kindly note the recorded shrunken log2 fold change for RRIRHRPPRLPRPRPRPTNMPRP , which is 1.96

Kindly note the recorded shrunken log2 fold change for RRIRVRPPRLPRPRPRPCAAPRP , which is 0.121

Dear colleague, could you please provide shrunken log2 fold change for the sequences listed below?
1. RRIRDRPPRLPRPRPRPGRNPRP
2. RRIRRRPPRLPRPRPRPEHMPRP
3. RRIRNRPPRLPRPRPRPWMEPRP
4. RRIRIRPPRLPRPRPRPSWYPRP
5. RRIRFRPPRLPRPRPRPGSDPRP

(A)
1: -0.495; 2: 0.14; 3: -0.00208; 4: -0.604; 5: -0.111

Dear colleague, could you please provide shrunken log2 fold change for the sequences listed below?
1. RRIRFRPPRLPRPRPRPTQEPRP
2. RRIRIRPPRLPRPRPRPNNVPRP
3. RRIRERPPRLPRPRPRPSFFPRP
4. RRIRIRPPRLPRPRPRPRPFPRP
5. RRIRSRPPRLPRPRPRPVTWPRP
6. RRIRQRPPRLPRPRPRPTHRPRP

(A)
0.321
-0.7
0.221
-0.253
0.0066
-0.000309

Kindly note the recorded shrunken log2 fold change for RRIRLRPPRLPRPRPRPDAYPRP , which is -0.281

* * *

Test system: Escherichia coli TOP10
experiment: shrunken log2 fold change of peptide-encoding DNA abundance (4.5 h post-induction vs induction); higher = less antimicrobial activity (less host growth inhibition)
details: time post-induction: 4.5 h; library: site-saturation at positions 5, 18, 19, 20
measured_quantity: shrunken log2 fold change
One number for each entry.

Kindly note the recorded shrunken log2 fold change for RRIRDRPPRLPRPRPRPLHFPRP , which is -0.0881

Kindly note the recorded shrunken log2 fold change for RRIRQRPPRLPRPRPRPWILPRP , which is -0.00158

Kindly note the recorded shrunken log2 fold change for RRIRKRPPRLPRPRPRPSVPPRP , which is 0.21

Kindly note the recorded shrunken log2 fold change for RRIRCRPPRLPRPRPRPVQGPRP , which is -0.0182

Kindly note the recorded shrunken log2 fold change for RRIRRRPPRLPRPRPRPMMDPRP , which is -0.00156

Dear colleague, could you please provide shrunken log2 fold change for the sequences listed below?
1. RRIRPRPPRLPRPRPRPFSMPRP
2. RRIRLRPPRLPRPRPRPNDCPRP
3. RRIRMRPPRLPRPRPRPDTMPRP

(A)
1: -0.161; 2: 0.0412; 3: 0.28

* * *

Tested on: Escherichia coli TOP10;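 further: peptides expressed intracellularly from a pBAD plasmid library in pooled LB shake-flask culture, induced with 0.3% L-arabinose, DNA abundance read by NGS, three biological replicates, DESeq2 with apeglm shrinkage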
experiment: shrunken log2 fold change of peptide-encoding DNA abundance (4.5 h post-induction vs induction); higher = less antimicrobial activity (less host growth inhibition)
details: time post-induction: 4.5 h; library: site-saturation at positions 5, 18, 19, 20
shrunken log2 fold change below -0.2 gives no (0); shrunken log2 fold change at or above it gives yes (1).

These solved cases illustrate the format of a correct answer.
(Q) Test whether the sequence RRIRFRPPRLPRPRPRPYPYPRP records shrunken log2 fold change of -0.2 or higher.
(A) yes (1)

(Q) Test whether the sequence RRIRGRPPRLPRPRPRPADWPRP records shrunken log2 fold change of -0.2 or higher.
(A) yes (1)

(Q) Test whether the sequence RRIRCRPPRLPRPRPRPSMTPRP records shrunken log2 fold change of -0.2 or higher.
(A) yes (1)

New cases:
(Q) Test whether the sequence RRIRERPPRLPRPRPRPIVHPRP records shrunken log2 fold change of -0.2 or higher.
(A) no (0)

(Q) Test whether the sequence RRIRFRPPRLPRPRPRPRDNPRP records shrunken log2 fold change of -0.2 or higher.
(A) yes (1)

(Q) Test whether the sequence RRIRWRPPRLPRPRPRPHEPPRP records shrunken log2 fold change of -0.2 or higher.
(A) yes (1)

(Q) Test whether the sequence RRIRVRPPRLPRPRPRPNWGPRP records shrunken log2 fold change of -0.2 or higher.
(A) yes (1)

(Q) Test whether the sequence RRIRKRPPRLPRPRPRPDGHPRP records shrunken log2 fold change of -0.2 or higher.
(A) yes (1)

(Q) Test whether the sequence RRIRSRPPRLPRPRPRPVNIPRP records shrunken log2 fold change of -0.2 or higher.
(A) no (0)

(Q) Test whether the sequence RRIRPRPPRLPRPRPRPFPSPRP records shrunken log2 fold change of -0.2 or higher.
(A) yes (1)

(Q) Test whether the sequence RRIRCRPPRLPRPRPRPLGKPRP records shrunken log2 fold change of -0.2 or higher.
(A) yes (1)

(Q) Test whether the sequence RRIRTRPPRLPRPRPRPYCPPRP records shrunken log2 fold change of -0.2 or higher.
(A) no (0)

(Q) Test whether the sequence RRIRNRPPRLPRPRPRPDMEPRP records shrunken log2 fold change of -0.2 or higher.
(A) yes (1)

(Q) Test whether the sequence RRIRMRPPRLPRPRPRPHKPPRP records shrunken log2 fold change of -0.2 or higher.
(A) yes (1)

(Q) Test whether the sequence RRIRDRPPRLPRPRPRPRLRPRP records shrunken log2 fold change of -0.2 or higher.
(A) yes (1)

(Q) Test whether the sequence RRIRWRPPRLPRPRPRPRDLPRP records shrunken log2 fold change of -0.2 or higher.
(A) yes (1)

(Q) Test whether the sequence RRIRNRPPRLPRPRPRPQRMPRP records shrunken log2 fold change of -0.2 or higher.
(A) yes (1)

(Q) Test whether the sequence RRIRERPPRLPRPRPRPGYPPRP records shrunken log2 fold change of -0.2 or higher.
(A) no (0)
